- Test system: fibrin- and LPS-induced microglia activation
- Protocol: cells
- Format: cell-based, rat
Counter-ions that a name gives are not always drawn.
Measured metric: Quadrant (FIG. 5b)

Compound: O=c1[nH]c2ccccc2n1CCCN1CCC(n2c(=O)[nH]c3cc(Cl)ccc32)CC1 [Domperidone]
Measured metric: Quadrant (FIG. 5b)
Experimental result: Q4

Compound: CO[C@@]12[C@H](COC(N)=O)C3=C(C(=O)C(C)=C(N)C3=O)N1C[C@@H]1N[C@@H]12 [Mitomycin C, Mitomycin]
Measured metric: Quadrant (FIG. 5b)
Experimental result: Q2

Compound: Cc1ncc(C[n+]2csc(CCO)c2C)c(N)n1 [Thiamine]
Measured metric: Quadrant (FIG. 5b)
Experimental result: Q4

Compound: NCCCC[C@H](N[C@@H](CCc1ccccc1)C(=O)O)C(=O)N1CCC[C@H]1C(=O)O [Lisinopril]
Measured metric: Quadrant (FIG. 5b)
Experimental result: Q4

Compound: CC(NC(C)(C)C)C(=O)c1cccc(Cl)c1.Cl (stereo not shown)
Measured metric: Quadrant (FIG. 5b)
Experimental result: Q4

Compound: CCC[C@@H]1C[C@@H](C(=O)N[C@@H]([C@H]2O[C@H](SC)[C@H](O)[C@@H](O)[C@H]2O)[C@H](C)Cl)N(C)C1 [Clindamycin Hydrochloride]
Measured metric: Quadrant (FIG. 5b)
Experimental result: Q4

Compound: NCCc1c[nH]cn1 [Histamine]
Measured metric: Quadrant (FIG. 5b)
Experimental result: Q4

Compound: CSc1ccc2c(c1)N(CCC1CCCCN1C)c1ccccc1S2 (stereo not shown) [Thioridazine hydrochloride, reference compound]
Measured metric: Quadrant (FIG. 5b)
Experimental result: Q2

Compound: CNCC(O)c1ccc(O)c(O)c1 (stereo not shown) [Racepinephrine]
Measured metric: Quadrant (FIG. 5b)
Experimental result: Q4

Compound: Cn1c(=O)c2[nH]cnc2n(C)c1=O [Aminophylline, Theophylline]
Measured metric: Quadrant (FIG. 5b)
Experimental result: Q4

Compound: CN(C)C(=O)C(CCN1CCC(O)(c2ccc(Cl)cc2)CC1)(c1ccccc1)c1ccccc1 [Loperamide]
Measured metric: Quadrant (FIG. 5b)
Experimental result: Q1

Compound: C[C@@H]1C[C@H]2[C@@H]3C[C@H](F)C4=CC(=O)C=C[C@]4(C)[C@@]3(F)[C@@H](O)C[C@]2(C)[C@@]1(O)C(=O)COC(=O)C(C)(C)C [Flumethazone pivalate, reference compound]
Measured metric: Quadrant (FIG. 5b)
Experimental result: Q2

Compound: CC(C)(O)c1ccccc1CC[C@@H](SCC1(CC(=O)O)CC1)c1cccc(/C=C/c2ccc3ccc(Cl)cc3n2)c1 [Montelukast]
Measured metric: Quadrant (FIG. 5b)
Experimental result: Q4

Compound: OCCN(CCO)c1nc(N2CCCCC2)c2nc(N(CCO)CCO)nc(N3CCCCC3)c2n1 [Dipyridamole]
Measured metric: Quadrant (FIG. 5b)
Experimental result: Q4

Compound: CCC1(c2ccccc2)C(=O)NCNC1=O [Primidone]
Measured metric: Quadrant (FIG. 5b)
Experimental result: Q4

Compound: C#CCN[C@@H]1CCc2ccccc21 [Rasagiline, reference compound]
Measured metric: Quadrant (FIG. 5b)
Experimental result: Q3

* * *

- Tested on: LPS-induced microglia activation
- Protocol: Image-based assay of LPS-induced microglia activation (HTS and dose response)
- Assay type: cell-based, rat
- Particulars: Rattus norvegicus, Microglia, 48 h; read-out: LPS % inhibition
Where a SMILES comes first, the peptide text is derived from it. [ ]: non-standard residue; d: D form. pGlu = O=C1CC[C@@H](C(=O)O)N1; Thz = O=C(O)[C@@H]1CSCN1
Measured metric: inhibition at 10 µM (%)

Molecule: CN(C)CCC(c1ccccc1)c1ccccn1 (stereo not shown) [Pheniramine]
Quantity unit: %
Experimental result: 1

Molecule: C=C[C@H]1CN2CC[C@H]1C[C@H]2[C@H](OC(=O)OCC)c1ccnc2ccc(OC)cc12 [Quinine Ethyl Carbonate]
Quantity unit: %
Experimental result: -11

Molecule: CC(COc1ccccc1)N(CCCl)Cc1ccccc1 (stereo not shown) [Phenoxybenzamine]
Quantity unit: %
Experimental result: -5

Molecule: OC(CCN1CCCC1)(c1ccccc1)C1CCCCC1 (stereo not shown) [Procyclidine]
Quantity unit: %
Experimental result: 26

Molecule: CNC(=C[N+](=O)[O-])NCCSCc1ccc(CN(C)C)o1 [Ranitidine]
Quantity unit: %
Experimental result: 15

Molecule: CC(=O)SCC(Cc1ccccc1)C(=O)NCC(=O)OCc1ccccc1 (stereo not shown) [Racecadotril]
Quantity unit: %
Experimental result: 18

Molecule: C[Se]CC[C@H](N)C(=O)O [Selenomethionine]
Quantity unit: %
Experimental result: 10

Molecule: O=C1CC[C@@H](C(=O)N2CSC[C@H]2C(=O)O)N1 [Pidotimod] ([pGlu]-[Thz]-OH)
Quantity unit: %
Experimental result: 14

Molecule: CCN1CCC[C@H]1CNC(=O)c1c(OC)ccc(Br)c1OC [Remoxipride]
Quantity unit: %
Experimental result: 3

Molecule: Cc1oc(=O)oc1CN1CCN(c2cc3c(cc2F)c(=O)c(C(=O)O)c2n3C(C)S2)CC1 (stereo not shown) [Prulifloxacin]
Quantity unit: %
Experimental result: 16

Molecule: CN[C@@H](C)[C@@H](O)c1ccccc1 [Pseudoephedrine]
Quantity unit: %
Experimental result: 5

Molecule: C#CCN(C)Cc1ccccc1 [Pargyline]
Quantity unit: %
Experimental result: 11

Molecule: Cc1ncc(CSSCc2cnc(C)c(O)c2CO)c(CO)c1O [Pyritinol]
Quantity unit: %
Experimental result: 4

* * *

inhibition at 10 µM for assorted molecules
- System: fibrin-induced microglia activation
- Protocol: Image-based assay of fibrin-induced microglia activation (HTS and dose response)
- Type: cell-based, rat
- Particulars: Rattus norvegicus, Microglia, primary HTS, 10 μM, fibrin-stimulated primary microglia; read-out: Fibrin % inhibition
Where a name gives a salt, the structure may show the parent alone.
Measured metric: inhibition at 10 µM (%)

Molecule: COC(=O)N/N=C/c1c[n+]([O-])c2ccccc2[n+]1[O-]
Measured metric: inhibition at 10 µM
Quantity unit: %
Experimental result: -2

Molecule: CCN(CC)CCOCCOC(=O)C1(c2ccccc2)CCCC1 [Carbetapentane Citrate]
Measured metric: inhibition at 10 µM
Quantity unit: %
Experimental result: -13

Molecule: O=C(O)C1=C(CSc2nnnn2CS(=O)(=O)O)CS[C@@H]2[C@H](NC(=O)[C@H](O)c3ccccc3)C(=O)N12 [Cefonicid Sodium]
Measured metric: inhibition at 10 µM
Quantity unit: %
Experimental result: -11

Molecule: CCCCOc1cc(C(=O)NCCN(CC)CC)c2ccccc2n1
Measured metric: inhibition at 10 µM
Quantity unit: %
Experimental result: -57

* * *

- Test system: fibrin-induced microglia activation
- Protocol: Image-based assay of fibrin-induced microglia activation (HTS and dose response)
- Type: cell-based, rat
- Particulars: Rattus norvegicus, Microglia, primary HTS, 10 μM, fibrin-stimulated primary microglia; read-out: Fibrin % inhibition
Counter-ions that a name gives are not always drawn.

Molecule: CCOc1nc2cccc(C(=O)O)c2n1Cc1ccc(-c2ccccc2-c2nnn[nH]2)cc1
Quantity unit: %
inhibition at 10 µM: 9

Molecule: CN(C)[C@@H]1C(O)=C(C(N)=O)C(=O)[C@@]2(O)C(O)=C3C(=O)c4c(O)ccc(Cl)c4[C@@](C)(O)[C@H]3C[C@@H]12
Quantity unit: %
inhibition at 10 µM: -15

Molecule: C=C1/C(=C\C=C2/CCC[C@]3(C)[C@@H]([C@H](C)/C=C/[C@@H](O)C4CC4)CC[C@@H]23)C[C@@H](O)C[C@@H]1O
Quantity unit: %
inhibition at 10 µM: 2

Molecule: O=C(O)c1cc(-c2ccccc2)nc2ccccc12
Quantity unit: %
inhibition at 10 µM: -9

Molecule: O=c1[nH]c(=O)c2ccccc2o1
Quantity unit: %
inhibition at 10 µM: -7

Molecule: CN(C)CCCOc1nn(Cc2ccccc2)c2ccccc12
Quantity unit: %
inhibition at 10 µM: -16

Molecule: C[C@H](CCC(=O)O)[C@H]1CC[C@H]2[C@@H]3[C@H](O)C[C@@H]4C[C@H](O)CC[C@]4(C)[C@H]3CC[C@]12C
Quantity unit: %
inhibition at 10 µM: -32

Molecule: CCC(=O)O[C@]1(C(=O)CCl)[C@@H](C)C[C@H]2[C@@H]3CCC4=CC(=O)C=C[C@]4(C)[C@@]3(F)[C@@H](O)C[C@@]21C [Clobetasol propionate, reference compound]
Quantity unit: %
inhibition at 10 µM: -22

Molecule: CC(C)(O)C(Cl)(Cl)Cl
Quantity unit: %
inhibition at 10 µM: -20

Molecule: CC(=O)OC1CC2CCC1(C)C2(C)C (centres unmarked) [Bornyl Acetate]
Quantity unit: %
inhibition at 10 µM: -38

Molecule: Oc1c(Br)cc(Br)c2cccnc12
Quantity unit: %
inhibition at 10 µM: -25

Molecule: CC(C)COCC(CN(Cc1ccccc1)c1ccccc1)N1CCCC1 (centres unmarked)
Quantity unit: %
inhibition at 10 µM: 1

Molecule: COc1cc2c(cc1OC)[C@@]13CCN4CC5=CCO[C@H]6CC(=O)N2[C@H]1[C@H]6[C@H]5C[C@H]43
Quantity unit: %
inhibition at 10 µM: 6

Molecule: C[C@H](CS)C(=O)N1CCC[C@H]1C(=O)O
Quantity unit: %
inhibition at 10 µM: -11

Molecule: CC(=O)OCC1=C(C(=O)O)N2C(=O)[C@@H](NC(=O)Cc3cccs3)[C@H]2SC1
Quantity unit: %
inhibition at 10 µM: 1

Molecule: COc1cc(/C=C/C(N)=O)cc(OC)c1OC [Cintriamide]
Quantity unit: %
inhibition at 10 µM: -2

Molecule: CC(C(=O)O)c1ccc2c(c1)[nH]c1ccc(Cl)cc12 (centres unmarked)
Quantity unit: %
inhibition at 10 µM: -2

Molecule: CO/N=C(\C(=O)N[C@@H]1C(=O)N2C(C(=O)O)=C(C[N+]3(C)CCCC3)CS[C@H]12)c1csc(N)n1 [Cefepime Hydrochloride]
Quantity unit: %
inhibition at 10 µM: 7

Molecule: CO[C@@]1(NC(=O)Cc2cccs2)C(=O)N2C(C(=O)O)=C(COC(N)=O)CS[C@@H]21
Quantity unit: %
inhibition at 10 µM: 6

Molecule: O=C(O)[C@H]1/C(=C/CO)O[C@@H]2CC(=O)N21 [Clavulanate]
Quantity unit: %
inhibition at 10 µM: -16

Reference source for all entries: patent US20210330611A1
